experiment: solubility in MIGLYOL 812 (mixture of caprylic acid and capric acid triglyceride); assay type: physicochemical
property-label: Solubility at room temperature (%)

>  <compound>
CC(Cc1cccc(C(=O)O)c1O)C[Si](C)(O[Si](C)(C)C)O[Si](C)(C)C (centres unmarked)

>  <property-label>
Solubility at room temperature

>  <sign-qualifier>
>

>  <readout-value>
20

$$$$
>  <compound>
C[Si](C)(C)CCCOc1ccc(C(=O)O)c(O)c1

>  <property-label>
Solubility at room temperature

>  <sign-qualifier>
=

>  <readout-value>
2

$$$$
>  <compound>
CC(COc1ccc(C(=O)O)c(O)c1)C[Si](C)(O[Si](C)(C)C)O[Si](C)(C)C (centres unmarked)

>  <property-label>
Solubility at room temperature

>  <sign-qualifier>
=

>  <readout-value>
6

$$$$
>  <compound>
C[Si](C)(C)CCCOc1ccc(O)c(C(=O)O)c1

>  <property-label>
Solubility at room temperature

>  <sign-qualifier>
=

>  <readout-value>
7

$$$$
>  <compound>
CCCCCCCC(=O)c1ccc(O)c(C(=O)O)c1 [Compound C1, 5-n-octanoylsalicylic acid, reference compound]

>  <property-label>
Solubility at room temperature

>  <sign-qualifier>
<

>  <readout-value>
1.5

$$$$
